- System Under Test: PI3Kγ (Homo sapiens, UniProt P48736)
- Construct: host or cells: THP-1
- Sequence (P48736 whole entry): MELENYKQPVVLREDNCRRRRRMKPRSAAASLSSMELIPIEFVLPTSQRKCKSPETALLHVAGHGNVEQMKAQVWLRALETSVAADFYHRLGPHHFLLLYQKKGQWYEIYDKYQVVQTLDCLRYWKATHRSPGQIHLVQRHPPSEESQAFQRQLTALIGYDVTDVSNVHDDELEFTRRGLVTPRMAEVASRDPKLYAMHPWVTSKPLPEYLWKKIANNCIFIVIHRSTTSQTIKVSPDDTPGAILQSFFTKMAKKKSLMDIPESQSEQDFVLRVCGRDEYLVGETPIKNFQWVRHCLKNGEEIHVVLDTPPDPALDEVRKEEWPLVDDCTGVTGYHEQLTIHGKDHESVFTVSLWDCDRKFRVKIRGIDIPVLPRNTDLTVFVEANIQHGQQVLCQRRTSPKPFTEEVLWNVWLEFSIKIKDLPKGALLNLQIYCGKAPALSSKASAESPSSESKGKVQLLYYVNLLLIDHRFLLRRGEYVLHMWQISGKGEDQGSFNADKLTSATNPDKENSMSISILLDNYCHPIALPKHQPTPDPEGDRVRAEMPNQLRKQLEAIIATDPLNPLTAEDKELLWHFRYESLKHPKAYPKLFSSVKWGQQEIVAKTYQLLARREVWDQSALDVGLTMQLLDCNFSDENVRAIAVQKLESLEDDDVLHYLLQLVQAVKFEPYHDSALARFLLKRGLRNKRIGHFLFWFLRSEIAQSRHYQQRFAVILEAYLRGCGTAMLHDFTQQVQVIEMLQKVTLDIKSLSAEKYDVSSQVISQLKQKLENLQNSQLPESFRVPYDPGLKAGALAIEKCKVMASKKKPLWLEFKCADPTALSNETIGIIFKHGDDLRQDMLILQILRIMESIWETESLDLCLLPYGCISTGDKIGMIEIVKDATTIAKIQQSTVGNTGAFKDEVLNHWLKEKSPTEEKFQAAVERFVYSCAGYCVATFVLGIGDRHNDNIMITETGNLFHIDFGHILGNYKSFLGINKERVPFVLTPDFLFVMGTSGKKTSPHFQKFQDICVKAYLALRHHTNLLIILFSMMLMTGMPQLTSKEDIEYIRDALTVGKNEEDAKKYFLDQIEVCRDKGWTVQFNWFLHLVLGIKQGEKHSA
- Assay Summary: PI3Kγ cellular assay in THP-1 cells (AKT pS473 AlphaLISA)
- Assay type: cell-based
- Condition Details: Table 2, rhMCP-1 stimulated AKT pS473, read-out: cellular potency (PI3Kγ IC50)
pIC50: −log10 of the molar value.
Assay Endpoint: pIC50

Past entries and their recorded results:
Molecule	Recorded Measurement
Cc1cc(-c2ccn3nc(N)c(C(=O)N[C@H](C)c4ccccc4F)c3n2)cc2c1C(=O)N(C(C)(C)CO)C2 [Example 317]	< 6.00
Cc1cc(-c2ccn3nc(N)c(C(=O)NC4CC4)c3n2)cc2c1C(=O)N([C@@H](C)C1CC1)C2 [Example 208]	6.00 to 7.00
Cc1cc(-c2ccn3nc(N)c(C(=O)NC4CC4(C)C)c3n2)cc2c1C(=O)N([C@@H](C)C1CC1)C2 (stereo partly shown) [Example 249]	6.00 to 7.00

Switching to the query record.
pIC50 lookup needed for CNC(=O)c1c(N)nn2ccc(-c3cc(C)c4c(c3)CN([C@@H](C)C3CC3)C4=O)nc12 [Example 216] , thanks.
6.00 to 7.00

###

Each entry below carries its reported pIC50.
- System Under Test: PI3Kγ (Homo sapiens, UniProt P48736)
- Construct: host or cells: THP-1
- Assay Summary: PI3Kγ cellular assay in THP-1 cells (AKT pS473 AlphaLISA)
- Assay type: cell-based
- Condition Details: Table 2, rhMCP-1 stimulated AKT pS473, read-out: cellular potency (PI3Kγ IC50)
pIC50: −log10 of the molar value.

Past entries and their recorded results:
Molecule	Recorded Measurement
Cc1cc(-c2ccn3nc(N)c(C(=O)NC4CC4)c3n2)cc2c1C(=O)N([C@H](CO)C1CC1)C2	6.00 to 7.00
Cc1cc(-c2ccn3nc(N)c(C(=O)N[C@@H](C)c4ccccc4F)c3n2)cc2c1C(=O)N(C(C)(C)CO)C2	6.00 to 7.00
Cc1cc(-c2ccn3nc(N)c(C(=O)N[C@H]4CC[C@@H]4O)c3n2)cc2c1C(=O)N([C@@H](C)C1CC1)C2	6.00 to 7.00
Cc1cc(-c2ccn3nc(N)c(C(=O)NC(C)C4COC4)c3n2)cc2c1C(=O)N([C@@H](C)C1CC1)C2 (stereo partly drawn)	6.00 to 7.00
Cc1cc(-c2ccn3nc(N)c(C(=O)NCC4COC4)c3n2)cc2c1C(=O)N([C@@H](C)C1CC1)C2	6.00 to 7.00

# input molecule: `Cc1cc(-c2ccn3nc(N)c(C(=O)NC[C@@H](C)O)c3n2)cc2c1C(=O)N([C@@H](C)C1CC1)C2` ; wanted: its pIC50
6.00 to 7.00

Note, next up: `Cc1cc(-c2ccn3nc(N)c(C(=O)N[C@@H](C)C4CC4)c3n2)cc2c1C(=O)N([C@@H](C)C1CC1)C2`
6.00 to 7.00

And then `Cc1cc(-c2ccn3nc(N)c(C(=O)N[C@H]4CCCC[C@H]4O)c3n2)cc2c1C(=O)N([C@@H](C)C1CC1)C2` , what is it?
6.00 to 7.00

Follow-up entry: `Cc1cc(-c2ccn3nc(N)c(C(=O)N[C@@H](C)c4ccccn4)c3n2)cc2c1C(=O)N([C@@H](C)C1CC1)C2`
6.00 to 7.00

What do you get for `Cc1cc(-c2ccn3nc(N)c(C(=O)NC4(CCO)CC4)c3n2)cc2c1C(=O)N([C@@H](C)C1CC1)C2` ?
6.00 to 7.00

Continue with `Cc1cc(-c2ccn3nc(N)c(C(=O)N[C@H]4c5ccccc5C[C@@H]4O)c3n2)cc2c1C(=O)N([C@@H](C)C1CC1)C2`
< 6.00

And what about the molecule `Cc1cc(-c2ccn3nc(N)c(C(=O)N[C@@H](CO)C(C)C)c3n2)cc2c1C(=O)N([C@@H](C)C1CC1)C2` ?
6.00 to 7.00

Please do the same for `Cc1cc(-c2ccn3nc(N)c(C(=O)N[C@H]4c5ccccc5C[C@H]4O)c3n2)cc2c1C(=O)N([C@@H](C)C1CC1)C2` as well.
< 6.00

Entry to check: `CC[C@H](C)N1Cc2cc(-c3ccn4nc(N)c(C(=O)NC5CC5)c4n3)cc(C)c2C1=O`
6.00 to 7.00

# repeat for `Cc1cc(-c2ccn3nc(N)c(C(=O)N[C@H]4CCCC[C@@H]4O)c3n2)cc2c1C(=O)N([C@@H](C)C1CC1)C2`
6.00 to 7.00

Moving on to `Cc1cc(-c2ccn3nc(N)c(C(=O)NC4CC(F)(F)C4)c3n2)cc2c1C(=O)N([C@@H](C)C1CC1)C2`
6.00 to 7.00

Next: Cc1cc(-c2ccn3nc(N)c(C(=O)NC(C)CO)c3n2)cc2c1C(=O)N([C@H](C)c1cccnc1)C2 (stereo partly drawn)
< 6.00

Request: Cc1cc(-c2ccn3nc(N)c(C(=O)N4CCC4CO)c3n2)cc2c1C(=O)N(C(C)C1CC1)C2 (stereo not drawn) [Example 274]
6.00 to 7.00

###

- System Under Test: PI3Kγ (Homo sapiens)
- Construct: host or cells: THP-1
- Assay Summary: PI3Kγ cellular assay in THP-1 cells (AKT pS473 AlphaLISA)
- Format: cell-based
- Condition Details: Table 6, rhMCP-1 stimulated AKT pS473, read-out: cellular potency (PI3Kγ IC50)
Listing of entries alongside the reported IC50.

These solved cases illustrate the format of a correct answer.
Compound	IC50
C[C@@H](C1CC1)N1Cc2cc(-c3ccn4nc(N)c(C(=O)Nc5ccccc5C(C)(C)O)c4n3)cc(OC(F)(F)F)c2C1=O	> 1 µM
C[C@@H](C1CC1)N1Cc2cc(-c3ccn4nc(N)c(C(=O)Nc5ccnc(C(F)(F)F)c5)c4n3)cc(OC(F)(F)F)c2C1=O	> 1 µM
C[C@@H](C1CC1)N1Cc2cc(-c3ccn4nc(N)c(C(=O)N[C@H]5CCNC5=O)c4n3)cc(O[C@@H]3CCOC3)c2C1=O	> 1 µM
C[C@@H](C1CC1)N1Cc2cc(-c3ccn4nc(N)c(C(=O)NC5CC5)c4n3)cc(NS(=O)(=O)N(C)C)c2C1=O	< 0.1 µM
C[C@@H](C1CC1)N1Cc2cc(-c3ccn4nc(N)c(C(=O)Nc5cnccc5N)c4n3)cc(OC(F)(F)F)c2C1=O	0.1 to 1 µM

Name the reported IC50 value associated with the compound `C[C@@H](C1CC1)N1Cc2cc(-c3ccn4nc(N)c(C(=O)N[C@H]5CNC[C@@H]5O)c4n3)cc(OC(F)(F)F)c2C1=O`
> 1 µM

Now try C[C@@H](C1CC1)N1Cc2cc(-c3ccn4nc(N)c(C(=O)NC5CC5)c4n3)cc(S(C)(=N)=O)c2C1=O (some centres unmarked) .
0.1 to 1 µM

# iterate: `C[C@@H](C1CC1)N1Cc2cc(-c3ccn4nc(N)c(C(=O)NCc5cccnc5)c4n3)cc(OC(F)(F)F)c2C1=O`
0.1 to 1 µM

Cool, now `C[C@H](N1Cc2cc(-c3ccn4nc(N)c(C(=O)NC5CC5)c4n3)cc(N3CC[C@@H](O)C3)c2C1=O)C(F)(F)F`
0.1 to 1 µM

Check `CCc1cc(-c2ccn3nc(N)c(C(=O)NC4CC4)c3n2)cc2c1C(=O)N([C@@H](C)C1CC1)C2` too.
0.1 to 1 µM

What do we get for `C[C@@H](C1CC1)N1Cc2cc(-c3ccn4nc(N)c(C(=O)N[C@H]5CC[C@H](C(=O)O)CC5)c4n3)cc(OC(F)(F)F)c2C1=O` ?
0.1 to 1 µM

Next entry: `C[C@@H](C1CC1)N1Cc2cc(-c3ccn4nc(N)c(C(=O)N[C@@H]5CNC[C@H]5O)c4n3)cc(OC(F)(F)F)c2C1=O`
> 1 µM

Now this one: `C[C@@H](C1CC1)N1Cc2cc(-c3ccn4nc(N)c(C(=O)N[C@@H]5CNC(=O)C5)c4n3)cc(O[C@@H]3CCOC3)c2C1=O`
> 1 µM

Could you do the same for `C[C@@H](C1CC1)N1Cc2cc(-c3ccn4nc(N)c(C(=O)N[C@H]5CCCNC5)c4n3)cc(OC(F)(F)F)c2C1=O` , please?
0.1 to 1 µM

###

- System Under Test: PI3Kγ (Homo sapiens)
- Construct: host or cells: THP-1
- Assay Summary: PI3Kγ cellular assay in THP-1 cells (AKT pS473 AlphaLISA)
- Type: cell-based
- Condition Details: Table 3, rhMCP-1 stimulated AKT pS473, read-out: cellular potency (PI3Kγ IC50)
Assay Endpoint: IC50

Smiles Input	Recorded Measurement
C[C@@H](C1CC1)N1Cc2cc(-c3ccn4nc(N)c(C(=O)Nc5ccccc5)c4n3)cc(C(F)(F)F)c2C1=O	> 1000 nM
C[C@@H](C1CC1)N1Cc2cc(-c3ccn4nc(N)c(C(=O)NC5CC5)c4n3)cc(C(F)(F)F)c2C1=O	100 to 1000 nM
C[C@@H](C1CC1)N1Cc2cc(-c3ccn4nc(N)c(C(=O)N[C@H]5CC[C@H](N)CC5)c4n3)cc(C(F)(F)F)c2C1=O	100 to 1000 nM
COC[C@@H](C)NC(=O)c1c(N)nn2ccc(-c3cc4c(c(C(F)(F)F)c3)C(=O)N([C@@H](C)C3CC3)C4)nc12	100 to 1000 nM

Form entry - test system: PI3Kγ (Homo sapiens); read-out: IC50; compound: `C[C@@H](O)CCNC(=O)c1c(N)nn2ccc(-c3cc4c(c(C(F)(F)F)c3)C(=O)N([C@@H](C)C3CC3)C4)nc12`
100 to 1000 nM

What about this compound? `C[C@@H](C1CC1)N1Cc2cc(-c3ccn4nc(N)c(C(=O)N[C@H]5CNC[C@@H]5O)c4n3)cc(C(F)(F)F)c2C1=O`
> 1000 nM

The reported numbers originate from patent US20230024302A1.
